Test system: CMS
Design: species or system AML cell lines (8); Primary HTS, single concentration about 10 uM, Cell Titer Glo viability; log10 luminescence, per cent inhibition relative to cycloheximide control
Conditions: 72 h, relative to cycloheximide control, log10 luminescence, inhibitor, CMS %inh, 10 µM
Counter-ions that a name gives are not always drawn. Square brackets hold non-standard residues; d marks the D form. Peptide text beside a SMILES is read from it. * marks the point of attachment. Sta = CC(C)C[C@H](N)[C@@H](O)CC(=O)O; Isovaleryl = CC(C)CC(=O)*
Property Label: CMS %inh
Please state the value followed by its unit.

Sample records with CMS %inh:
INSERT INTO results (compound, obs_value) VALUES
  ('Nc1ncnc2occ(-c3ccc(NC(=O)Nc4cc(C(F)(F)F)ccc4F)cc3)c12', '10.62%'),
  ('CCCCNc1cc(C(=O)O)cc(S(N)(=O)=O)c1Oc1ccccc1 [SJ000285893-7, BUMETANIDE]', '2.865%'),
  ('O=C(O[C@H]1C[C@H]2CC[C@@H](C1)[N+]21CCCC1)C(O)(c1ccccc1)c1ccccc1 [SJ000556733-1, TROSPIUM CHLORIDE]', '1.711%'),
  ('CC[C@H]1OC(=O)[C@H](C)[C@@H](O[C@H]2C[C@@](C)(OC)[C@@H](O)[C@H](C)O2)[C@H](C)[C@@H](O[C@@H]2O[C@H](C)C[C@H](N(C)C)[C@H]2O)[C@](C)(OC)C[C@@H](C)C(=O)[C@H](C)[C@@H](O)[C@]1(C)O', '4.035%'),
  ('CO[C@H]1/C=C/O[C@@]2(C)Oc3c(C)c(O)c4c(O)c(c(/C=N/N5CCN(C6CCCC6)CC5)c(O)c4c3C2=O)NC(=O)/C(C)=C\C=C\[C@H](C)[C@H](O)[C@@H](C)[C@@H](O)[C@@H](C)[C@H](OC(C)=O)[C@@H]1C', '9.958%');

Dear colleague, could you send me CMS %inh for each of the items below? Thanks.
1. CCCC(CCC)C(=O)O
2. CC=CC1=C(C(=O)O)N2C(=O)[C@@H](NC(=O)[C@H](N)c3ccc(O)cc3)[C@H]2SC1
3. CCCCC(=O)N(Cc1ccc(-c2ccccc2-c2nnn[nH]2)cc1)[C@H](C(=O)O)C(C)C

Result:
-1.126%
-3.774%
1.896%

Dear colleague, could you send me CMS %inh for each of the items below? Thanks.
1. Nc1ccc(S(=O)(=O)Nc2ccccn2)cc1
2. CCOc1cc(CC(=O)N[C@@H](CC(C)C)c2ccccc2N2CCCCC2)ccc1C(=O)O [SJ000287528-3, REPAGLINIDE]
3. CC(C)(C)C(=O)Oc1ccc(S(=O)(=O)Nc2ccccc2C(=O)NCC(=O)O)cc1 [SJ000556638-3, SIVELESTAT SODIUM SALT]
4. CC(C)CC(=O)N[C@H](C(=O)N[C@H](C(=O)N[C@@H](CC(C)C)[C@@H](O)CC(=O)N[C@@H](C)C(=O)N[C@@H](CC(C)C)[C@@H](O)CC(=O)O)C(C)C)C(C)C [SJ000287258-3, PEPSTATIN A] (Isovaleryl-VV[Sta]A[Sta]-OH)

Result:
1: 2.339%; 2: -3.811%; 3: -1.314%; 4: 1.08%

* * *

Tested on: CMK
Set-up: species or system AML cell lines (8); Primary HTS, single concentration about 10 uM, Cell Titer Glo viability; log10 luminescence, per cent inhibition relative to cycloheximide control
Settings: 72 h, relative to cycloheximide control, log10 luminescence; inhibitor
Would you mind telling me the reported CMK %inh of each entry?
Numbers only, in %.

Sample records with CMK %inh:
INSERT INTO results (compound, property_label, obs_value) VALUES
  ('COc1cccc(C2=C(c3c(C)n(C)c4ccccc34)C(=O)NC2=O)c1', 'CMK %inh', 1.238),
  ('CO/N=C(\C(=O)N[C@@H]1C(=O)N2C(C(=O)O)=CCS[C@H]12)c1csc(N)n1 [SJ000565169-1, CEFTIZOXIME SODIUM]', 'CMK %inh', -4.179);

Dear colleague, could you send me CMK %inh for each of the items below? Thanks.
1. Cn1cc(C2=C(c3c4n(c5ccccc35)CCCCC4)C(=O)NC2=O)c2ccccc21
2. Cc1ccc(-c2cc3c(NC(=O)C4CC4)ncnc3o2)cc1

Result:
[2.966, -5.745]

* * *

Test system: M07e
Parameters: species or system AML cell lines (8); Primary HTS, single concentration about 10 uM, Cell Titer Glo viability; log10 luminescence, per cent inhibition relative to cycloheximide control
Conditions: 72 h, relative to cycloheximide control, log10 luminescence, inhibitor, M07e %inh, 10 µM
Property Label: M07e %inh (%)
Numbers only, in %.

Sample records with M07e %inh:
INSERT INTO results (compound, property_label, scale_unit, obs_value) VALUES
  ('C/C=C(/C(=C/C)c1ccc(O)cc1)c1ccc(O)cc1 [SJ000285735-5, DIENESTROL]', 'M07e %inh', '%', 2.558),
  ('CO[C@H]1/C=C/O[C@@]2(C)Oc3c(C)c(O)c4c(O)c(c(/C=N/N5CCN(C6CCCC6)CC5)c(O)c4c3C2=O)NC(=O)/C(C)=C\C=C\[C@H](C)[C@H](O)[C@@H](C)[C@@H](O)[C@@H](C)[C@H](OC(C)=O)[C@@H]1C [SJ000556738-2, RIFAPENTINE]', 'M07e %inh', '%', 2.598),
  ('CC(=O)/N=c1/sc(S(N)(=O)=O)nn1C [SJ000285971-4, METHAZOLAMIDE]', 'M07e %inh', '%', -2.489),
  ('C[C@]12CC[C@@H]3c4ccc(O)cc4C[C@@H](CCCCCCCCC[S+]([O-])CCCC(F)(F)C(F)(F)F)[C@H]3[C@@H]1CC[C@@H]2O (single isomer, unassigned) [SJ000288293-3]', 'M07e %inh', '%', 3.741),
  ('CC=CC1=C(C(=O)O)N2C(=O)[C@@H](NC(=O)[C@H](N)c3ccc(O)cc3)[C@H]2SC1 [SJ000565172-1, CEFPROZIL]', 'M07e %inh', '%', -0.1553),
  ('CO[C@@H]1[C@H](OC(=O)/C=C/C=C/C=C/C=C/C(=O)O)CC[C@]2(CO2)[C@H]1[C@@]1(C)O[C@@H]1CC=C(C)C [SJ000556696-1, FUMAGILLIN]', 'M07e %inh', '%', 2.083);

Dear colleague, could you send me M07e %inh for each of the items below? Thanks.
1. COc1ccc2cc(CCC(C)=O)ccc2c1 [SJ000285475-3, NABUMETONE]
2. CNC(=O)[C@@H](NC(=O)[C@H](CC(C)C)[C@H](O)C(=O)NO)C(C)(C)C [SJ000772411-1]

Result:
3.981
-0.5084

* * *

Tested on: CHRF288-11
Design: species or system AML cell lines (8); Primary HTS, single concentration about 10 uM, Cell Titer Glo viability; log10 luminescence, per cent inhibition relative to cycloheximide control
Details: 72 h, relative to cycloheximide control, log10 luminescence; inhibitor
Property Label: CHRF288-11 %inh (%)
Numbers only, in %.

INSERT INTO assay_data (compound, property_label, obs_value) VALUES
  ('CN(C)CCCNc1nccc(-c2c(-c3ccc(F)cc3)nn3cc(C(F)(F)F)ccc23)n1', 'CHRF288-11 %inh', 4.716),
  ('Nc1c(C(=O)c2cccc(OCCN3CCOCC3)c2)cnn1-c1ccc(F)cc1', 'CHRF288-11 %inh', -1.374),
  ('CC(=O)O[C@H]1C[C@@H]2CC[C@@H]3[C@H](CC[C@@]4(C)[C@H]3C[C@H](N3CC[N+](C)(C)CC3)[C@@H]4OC(C)=O)[C@@]2(C)C[C@@H]1N1CC[N+](C)(C)CC1 [SJ000555714-1, PIPECURIUM BROMIDE]', 'CHRF288-11 %inh', -2.142),
  ('CCC[C@@H]1CC2=CC(=O)CC[C@]2(C)[C@H]2CC[C@@]3(C)[C@@H](CC[C@@]34CCC(=O)O4)[C@H]12', 'CHRF288-11 %inh', -0.7374),
  ('Cn1c(=O)c(Cc2ccccc2F)cc2cnc(NC3CCOCC3)nc21', 'CHRF288-11 %inh', 0.1529),
  ('NS(=O)(=O)c1cccc(Nc2cc(-c3ccc(F)cc3)n[nH]2)c1', 'CHRF288-11 %inh', -0.9199),
  ('CNCC1CCn2c(c(C3=C(c4cn(C)c5ccccc45)C(=O)NC3=O)c3ccccc32)C1 (stereo not drawn)', 'CHRF288-11 %inh', 5.735),
  ('CC(CO)Nc1cc(-c2[nH]c3cccnc3c2-c2ccc(F)cc2)ccn1 (stereo not drawn)', 'CHRF288-11 %inh', 7.035);

Dear colleague, could you send me CHRF288-11 %inh for each of the items below? Thanks.
1. C=CCNC(=O)c1cc([N+](=O)[O-])cc2c(=O)[nH]c(Nc3ccc(Cl)c(Cl)c3)nc12
2. O=C1NC(=NCCc2ccccc2Cl)S/C1=C\c1ccc2ncccc2c1
3. Cc1ccc2c(-c3ccnc(Nc4cccc(C(F)(F)F)c4)n3)c(-c3ccccc3)nn2n1
4. COc1cc2ncn(-c3cc(OCc4ccccc4C(F)(F)F)c(C(C)=O)s3)c2cc1OC
5. OCCn1c(-c2ccncc2)c(-c2ccc(F)cc2)c2ncccc21
6. NC(=O)c1sc(-n2cnc3ccc(C(F)(F)F)cc32)cc1OCc1ccccc1Br
7. Nc1c(C(=O)c2cccc(C#CCN3CCCCC3)c2)cnn1-c1ccc(F)cc1

Result:
[0.7864, -2.34, -3.995, -3.203, 7.224, 1.336, 2.1]
